- system name: Aβ(1–42) aggregates (Homo sapiens, UniProt P05067)
- Construct: made in house; host or cells: chemical synthesis (Fmoc solid phase peptide synthesis)
- Sequence (P05067 672-713 limits assumed): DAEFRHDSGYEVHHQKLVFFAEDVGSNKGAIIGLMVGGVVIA
- method notes: ThT fluorescence Aβ(1–42) disaggregation assay
- Type: biochemical
- recorded conditions: Aβ(1–42) 25 μM pre-aggregated 37°C 3 days, compound added for additional 3 days; concentration of the printed value not stated
- Method: ThT fluorescence was used to assess the in vitro inhibition of Aβ(1–42) and disaggregation of Aβ(1–42), Aβ(1–40), Aβ(pE3-42), recombinant tau K18, and tau repeats R1, R2, R3, R4 by YIAD compounds. […] Prior to fluorescence intensity measurement, ThT solution (5 μM) was prepared by dissolving ThT, purchased from Sigma-Aldrich (MO, USA) in 50 mM glycine buffer (pH 8.5). […]
Attribute: Decrease of fibrillar Aβ(1–42) aggregates (ThT fluorescence)
Expressed in %, but write only the number.

Known Decrease of fibrillar Aβ(1–42) aggregates (ThT fluorescence) results, listed for orientation:
compound	system name	measured number
CCC(C)(C)c1ccc(OCC(O)CN2CCCC2)c(C(C)(C)CC)c1.Cl (stereo not shown)	Aβ(1–42) aggregates (Homo sapiens, UniProt P05067)	99.94
CCC(C)(C)c1ccc(OCC(O)CN2CCOCC2)c(C(C)(C)CC)c1.Cl (stereo not shown)	Aβ(1–42) aggregates (Homo sapiens, UniProt P05067)	82.61
CC(C)(C)c1ccc(OCC(O)CN2CCCC2)cc1.Cl (stereo not shown)	Aβ(1–42) aggregates (Homo sapiens, UniProt P05067)	83.56

Moving on to another compound below.
IN: # lookup: Decrease of fibrillar Aβ(1–42) aggregates (ThT fluorescence) of CC(C)(C)c1ccc(OCC(O)CN2CCCCC2)cc1.Cl (stereo not shown)
OUT: 59.89

Data origin, for the record: paper PMC9706920
